Tested on: Erythrocyte
protocol_notes: Hemolytic activity against human red blood cells assessed as concentration required to cause 10% hemoglobin release measured after 1 hr by microplate reader analysis
Assay type: ADME, cell-based
# MHC10 per entry
measured_parameter: MHC10

- H-WGEAFSAGVHRLANGGNG-NH2: > 71.15 µM
- H-WGRAFRRGVRRLARGGRR-NH2: > 58.64 µM
- H-WGRAFSAGVHRLANGGNG-NH2: > 70.09 µM
- H-WLRAFRRLVRRLARLLRR-NH2: 53.18 µM
- H-WGRAFSAGVHRLARGGRG-NH2: > 67.01 µM
- H-WGRAFSRGVRRLARGGRG-NH2: > 63.54 µM

Values compiled from ChEMBL document CHEMBL4765236.
